Each item that follows carries a reported viability, T/C.
# System: 429239-143-T-J1-PDC complex spheroid viability
# TEST_DETAILS: Anticancer human tumor 429239-143-T-J1-PDC patient-derived small cell lung carcinoma cell line growth inhibition [POLQ]
# EXPERIMENTAL_CONTEXT: second compound 0.316 µM; first compound 0.0316 µM; stronger effect = lower value
# Protocol: Multicellular complex tumor spheroid response to Polymerase (POL) inhibitors (novobiocin, ART-558, RP6685) in combination with a variety of drugs and investigational agents in selected tumor cell lines The POL inhibitors (novobiocin, ART-558, and RP6685) were evaluated both individually and in combination with standard of care and investigational anticancer small molecules within a complex spheroid model of solid tumors. . […]
Could you give me the number in %? Just the number is fine.

MOLECULE	viability, T/C, %
CC1COCCN1c1cc(-c2ccnn2C)c2ccnc(-c3ccn[nH]3)c2n1 (centres undefined) + Nc1ccc(C#CCN(C(=O)Cc2ncc(C(F)(F)F)cc2C(F)(F)F)c2ccc(F)cc2)nn1	91.5
C=CC(=O)N1CCN(c2nc(=O)n(-c3c(C)ccnc3C(C)C)c3nc(-c4c(O)cccc4F)c(F)cc23)C(C)C1 (centres undefined) + Cc1cccc(N(C)C(=O)C2C(O)CCN2c2nc(C)cc(C(F)(F)F)c2C#N)c1	105
COc1cccc(OCCCN)c1-c1cc(Nc2cnc(C#N)cn2)n[nH]1 + COC1C(OC(N)=O)C(O)C(Oc2ccc3c(O)c(NC(=O)c4ccc(O)c(CC=C(C)C)c4)c(=O)oc3c2C)OC1(C)C	72.8

Then there is this molecule:
Would you kindly share the measured viability, T/C for Nc1ccn(C2OC(CO)C(O)C2(F)F)c(=O)n1 (centres undefined) + Cc1cccc(N(C)C(=O)C2C(O)CCN2c2nc(C)cc(C(F)(F)F)c2C#N)c1 ?
18.5

====

# Tested on: 429239-143-T-J1-PDC complex spheroid viability
# TEST_DETAILS: Anticancer human tumor 429239-143-T-J1-PDC cell line growth inhibition [POLQ];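 further: luminescence signal used as surrogate measure of viable cells; spheroids exposed to compounds for seven days before readout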;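 on viability, T/C: 100% = DMSO vehicle control viability as luminescence relative to vehicle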
# EXPERIMENTAL_CONTEXT: second compound 0.316 µM; first compound 0.1 µM; stronger effect = lower value
# Experimental: Multicellular complex tumor spheroid response to Polymerase (POL) inhibitors (novobiocin, ART-558, RP6685) in combination with a variety of drugs and investigational agents in selected tumor cell lines The POL inhibitors (novobiocin, ART-558, and RP6685) were evaluated both individually and in combination with standard of care and investigational anticancer small molecules within a complex spheroid model of solid tumors. . […]
Labelling: viability, T/C reported below 90% becomes T; at or above becomes F.

Check out these entries, answers already filled in.
MOLECULE	CAT
COc1ccc([C@@H](O)c2cc(-c3ncnc4cc(N5CCOCC5)ccc34)c(F)cc2Cl)nn1 + Cc1cccc(N(C)C(=O)C2C(O)CCN2c2nc(C)cc(C(F)(F)F)c2C#N)c1	F
CC[C@@]1(O)C(=O)OCc2c1cc1n(c2=O)Cc2cc3c(CN(C)C)c(O)ccc3nc2-1 + COC1C(OC(N)=O)C(O)C(Oc2ccc3c(O)c(NC(=O)c4ccc(O)c(CC=C(C)C)c4)c(=O)oc3c2C)OC1(C)C	T
COc1ccc([C@@H](O)c2cc(-c3ncnc4cc(N5CCOCC5)ccc34)c(F)cc2Cl)nn1 + COC1C(OC(N)=O)C(O)C(Oc2ccc3c(O)c(NC(=O)c4ccc(O)c(CC=C(C)C)c4)c(=O)oc3c2C)OC1(C)C	F
C=CC(=O)N1CCN(c2nc(=O)n(-c3c(C)ccnc3C(C)C)c3nc(-c4c(O)cccc4F)c(F)cc23)C(C)C1 (stereo not drawn) + Cc1cccc(N(C)C(=O)C2C(O)CCN2c2nc(C)cc(C(F)(F)F)c2C#N)c1	F
CNCc1ccc(-c2[nH]c3cc(F)cc4c3c2CCNC4=O)cc1 + COC1C(OC(N)=O)C(O)C(Oc2ccc3c(O)c(NC(=O)c4ccc(O)c(CC=C(C)C)c4)c(=O)oc3c2C)OC1(C)C	T
CC[C@@]1(O)C(=O)OCc2c1cc1n(c2=O)Cc2cc3c(CN(C)C)c(O)ccc3nc2-1 + Cc1cccc(N(C)C(=O)C2C(O)CCN2c2nc(C)cc(C(F)(F)F)c2C#N)c1	T

Does the reported viability, T/C of the following molecule sit strictly below 90%? CCc1cc2c(N3CCc4c(cc(Cn5ccnc5)cc4-c4cn(C)nc4C(F)(F)F)C3=O)cc(C)nc2c(OC)n1 + COC1C(OC(N)=O)C(O)C(Oc2ccc3c(O)c(NC(=O)c4ccc(O)c(CC=C(C)C)c4)c(=O)oc3c2C)OC1(C)C
F

Same for CCc1c2c(nc3ccc(O)cc13)-c1cc3c(c(=O)n1C2)COC(=O)[C@]3(O)CC + COC1C(OC(N)=O)C(O)C(Oc2ccc3c(O)c(NC(=O)c4ccc(O)c(CC=C(C)C)c4)c(=O)oc3c2C)OC1(C)C
T

====

# Test system: 429239-143-T-J1-PDC complex spheroid viability
# TEST_DETAILS: Anticancer human tumor 429239-143-T-J1-PDC cell line growth inhibition [POLQ]; active means viability on the fitted dose curve at most 10% of control; inactive means the rest;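 further: luminescence signal used as surrogate measure of viable cells; spheroids exposed to compounds for seven days before readout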
# EXPERIMENTAL_CONTEXT: second compound 10 µM; first compound 1 µM
# Experimental: Multicellular complex tumor spheroid response to Polymerase (POL) inhibitors (novobiocin, ART-558, RP6685) in combination with a variety of drugs and investigational agents in selected tumor cell lines The POL inhibitors (novobiocin, ART-558, and RP6685) were evaluated both individually and in combination with standard of care and investigational anticancer small molecules within a complex spheroid model of solid tumors. . […]
# valid calls are 1 for active, 0 for inactive; nothing else

Please let me know the test result on file for COc1cc(C2c3cc4c(cc3C(OC3OC5COC(C)OC5C(O)C3O)C3COC(=O)C23)OCO4)cc(OC)c1O (centres undefined) + COC1C(OC(N)=O)C(O)C(Oc2ccc3c(O)c(NC(=O)c4ccc(O)c(CC=C(C)C)c4)c(=O)oc3c2C)OC1(C)C .
0

Same for C#Cc1c(F)ccc2cc(O)cc(-c3ncc4c(N5CC6CCC(C5)N6)nc(OCC56CCCN5CC(F)C6)nc4c3F)c12 (centres undefined) + Nc1ccc(C#CCN(C(=O)Cc2ncc(C(F)(F)F)cc2C(F)(F)F)c2ccc(F)cc2)nn1
0

Same for O=C(Nc1ccc(O)c(NS(=O)(=O)c2ccc(F)cc2)c1)c1ccc(-c2ccccc2)cc1 + COC1C(OC(N)=O)C(O)C(Oc2ccc3c(O)c(NC(=O)c4ccc(O)c(CC=C(C)C)c4)c(=O)oc3c2C)OC1(C)C
0

====

# System: 429239-143-T-J1-PDC complex spheroid viability
# TEST_DETAILS: Anticancer human tumor 429239-143-T-J1-PDC cell line growth inhibition [POLQ];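 further: luminescence signal used as surrogate measure of viable cells; spheroids exposed to compounds for seven days before readout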
# EXPERIMENTAL_CONTEXT: curve of first compound; second compound 0.316 µM
MEASURED_ENDPOINT: pIC50
Units for pIC50: none; it is -log10 of a concentration expressed in mol/L.

In the examples that follow, each entry is paired with its recorded pIC50.
COMPOUND	pIC50
CNCc1ccc(-c2[nH]c3cc(F)cc4c3c2CCNC4=O)cc1 + Nc1ccc(C#CCN(C(=O)Cc2ncc(C(F)(F)F)cc2C(F)(F)F)c2ccc(F)cc2)nn1	5.20
CCc1cc2c(N3CCc4c(cc(Cn5ccnc5)cc4-c4cn(C)nc4C(F)(F)F)C3=O)cc(C)nc2c(OC)n1 + Cc1cccc(N(C)C(=O)C2C(O)CCN2c2nc(C)cc(C(F)(F)F)c2C#N)c1	5.10
O=C(c1cc(Cc2n[nH]c(=O)c3ccccc23)ccc1F)N1CCN(C(=O)C2CC2)CC1 + Cc1cccc(N(C)C(=O)C2C(O)CCN2c2nc(C)cc(C(F)(F)F)c2C#N)c1	5.78
CC(=O)O[C@H]1C(=O)[C@@]2(C)[C@H]([C@H](OC(=O)c3ccccc3)[C@]3(O)C[C@H](OC(=O)[C@H](O)[C@@H](NC(=O)c4ccccc4)c4ccccc4)C(C)=C1C3(C)C)[C@]1(OC(C)=O)CO[C@@H]1C[C@@H]2O + Cc1cccc(N(C)C(=O)C2C(O)CCN2c2nc(C)cc(C(F)(F)F)c2C#N)c1	7.94

Would you kindly share the measured pIC50 for COc1cccc(OCCCN)c1-c1cc(Nc2cnc(C#N)cn2)n[nH]1 + Cc1cccc(N(C)C(=O)C2C(O)CCN2c2nc(C)cc(C(F)(F)F)c2C#N)c1 ?
6.61

Same for CC[C@@]1(O)C(=O)OCc2c1cc1n(c2=O)Cc2cc3c(CN(C)C)c(O)ccc3nc2-1 + COC1C(OC(N)=O)C(O)C(Oc2ccc3c(O)c(NC(=O)c4ccc(O)c(CC=C(C)C)c4)c(=O)oc3c2C)OC1(C)C
7.82

====

# System: 429239-143-T-J1-PDC complex spheroid viability
# TEST_DETAILS: Anticancer human tumor 429239-143-T-J1-PDC cell line growth inhibition [POLQ];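 further: luminescence signal used as surrogate measure of viable cells; spheroids exposed to compounds for seven days before readout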
# EXPERIMENTAL_CONTEXT: curve of first compound; second compound 0.316 µM
# Procedure: Multicellular complex tumor spheroid response to Polymerase (POL) inhibitors (novobiocin, ART-558, RP6685) in combination with a variety of drugs and investigational agents in selected tumor cell lines The POL inhibitors (novobiocin, ART-558, and RP6685) were evaluated both individually and in combination with standard of care and investigational anticancer small molecules within a complex spheroid model of solid tumors. . […]
Each item that follows carries a reported IC50.

COMPOUND	MEASURED_VALUE
C=CC(=O)N1CCN(c2nc(=O)n(-c3c(C)ccnc3C(C)C)c3nc(-c4c(O)cccc4F)c(F)cc23)C(C)C1 (stereo unspecified) + Cc1cccc(N(C)C(=O)C2C(O)CCN2c2nc(C)cc(C(F)(F)F)c2C#N)c1	> 10 µM

Would you kindly share the measured IC50 for CC(C)n1c(=O)n(C)c2cnc3cc(F)c(-c4ccc(OCCCN5CCCCC5)nc4)cc3c21 + Nc1ccc(C#CCN(C(=O)Cc2ncc(C(F)(F)F)cc2C(F)(F)F)c2ccc(F)cc2)nn1 ?
> 10 µM

Same for CCCS(=O)(=O)Nc1ccc(F)c(C(=O)c2c[nH]c3ncc(-c4ccc(Cl)cc4)cc23)c1F + Nc1ccc(C#CCN(C(=O)Cc2ncc(C(F)(F)F)cc2C(F)(F)F)c2ccc(F)cc2)nn1
> 10 µM

Same for Nc1ccn(C2OC(CO)C(O)C2(F)F)c(=O)n1 (stereo unspecified) + Cc1cccc(N(C)C(=O)C2C(O)CCN2c2nc(C)cc(C(F)(F)F)c2C#N)c1
< 0.0316 µM

Same for Cn1ncnc1[C@H]1c2n[nH]c(=O)c3cc(F)cc(c23)N[C@@H]1c1ccc(F)cc1 + Nc1ccc(C#CCN(C(=O)Cc2ncc(C(F)(F)F)cc2C(F)(F)F)c2ccc(F)cc2)nn1
> 0.1 µM

Same for O=C(Nc1ccc(O)c(NS(=O)(=O)c2ccc(F)cc2)c1)c1ccc(-c2ccccc2)cc1 + Cc1cccc(N(C)C(=O)C2C(O)CCN2c2nc(C)cc(C(F)(F)F)c2C#N)c1
> 10 µM

Same for C#Cc1c(F)ccc2cc(O)cc(-c3ncc4c(N5CC6CCC(C5)N6)nc(OCC56CCCN5CC(F)C6)nc4c3F)c12 (stereo unspecified) + Cc1cccc(N(C)C(=O)C2C(O)CCN2c2nc(C)cc(C(F)(F)F)c2C#N)c1
> 10 µM

Same for C#Cc1c(F)ccc2cc(O)cc(-c3ncc4c(N5CC6CCC(C5)N6)nc(OCC56CCCN5CC(F)C6)nc4c3F)c12 (stereo unspecified) + COC1C(OC(N)=O)C(O)C(Oc2ccc3c(O)c(NC(=O)c4ccc(O)c(CC=C(C)C)c4)c(=O)oc3c2C)OC1(C)C
> 10 µM

Same for COc1cc2cc(C(=O)CCC(=O)O)sc2cc1OC + COC1C(OC(N)=O)C(O)C(Oc2ccc3c(O)c(NC(=O)c4ccc(O)c(CC=C(C)C)c4)c(=O)oc3c2C)OC1(C)C
> 10 µM

Same for O=C(Nc1ccc(O)c(NS(=O)(=O)c2ccc(F)cc2)c1)c1ccc(-c2ccccc2)cc1 + COC1C(OC(N)=O)C(O)C(Oc2ccc3c(O)c(NC(=O)c4ccc(O)c(CC=C(C)C)c4)c(=O)oc3c2C)OC1(C)C
> 10 µM

Same for CCc1cc2c(N3CCc4c(cc(Cn5ccnc5)cc4-c4cn(C)nc4C(F)(F)F)C3=O)ccnc2c(OC)n1 + Cc1cccc(N(C)C(=O)C2C(O)CCN2c2nc(C)cc(C(F)(F)F)c2C#N)c1
> 10 µM
